tested on: OVCAR-5; assay: NCI tumour cell line growth inhibition, 48 h
The source made the active and inactive calls. No stated cut-off is given here; in the data, active = GI50 up to about 1.1 µM and inactive = higher.
Entry note: the call must match one of active, inactive

What call does the record list for "COC(=O)c1cc(O)c(O)c(O)c1-c1c(O)c(O)c(O)c(SC[C@H](NC(=O)OCc2ccccc2)C(=O)OCc2ccccc2)c1C(=O)OC" ?
inactive

Next molecule: "O=C1C[C@H](c2ccccc2)C2(C(=O)c3ccccc3C2=O)[C@H](c2ccccc2)C1"
inactive

Next molecule: "C=CCOCn1cnc2c(=O)[nH]c(N)nc21"
inactive

Next molecule: "COn1oc(=O)c2ccccc21"
inactive

Next molecule: C[C@]12CC[C@H](O)CC1=CC[C@@H]1C2CC[C@]2(C)c3n[nH]nc3CC12 (some centres undefined)
inactive

Next molecule: "O=[N+]([O-])c1cc(-[n+]2cc([O-])on2)ccc1Cl"
inactive

Next molecule: "C=CCC1(O)c2cccc(O)c2C(=O)c2c(O)cccc21"
inactive

Next molecule: "Nc1cc(F)ccc1CC(=O)O"
inactive

Next molecule: COC(=O)C(=O)C1CCCCC(C2=NC3NN=C(N)N3C2=O)C1=O (centres undefined)
inactive

Next molecule: CC1(C)OCC(C2OC(=O)C(OCc3ccccc3)=C2OCc2ccccc2)O1 (centres undefined)
inactive

Next molecule: CCC[C@H](C)[C@H]1NC(=O)[C@@H](NC(=O)[C@@H](CC(C)C)N(C)C(=O)C2CCCN2C(=O)[C@H](C)O)[C@@H](C)OC(=O)[C@H](CC(C)C)N(C)C(=O)[C@@H]2CCCN2C(=O)[C@H](CC(C)C)NC(=O)[C@@H](C)C(=O)[C@H](C(C)C)OC(=O)C[C@@H]1O (some centres undefined)
active

Next molecule: "c1ccc2c(-c3ccnc(-c4c[nH]c5ccccc45)n3)c[nH]c2c1"
inactive

Next molecule: CC1(C)CC2=C(Sc3ccccc3N2)C(=O)C1C(=O)C(=O)Nc1cc(Cl)ccc1Cl (centres undefined)
inactive

Next molecule: "CC(=O)O[C@@]12[C@@H]3O[C@@]4(O)C[C@]5(C)[C@H]6C[C@@](C(C)C)(O[C@H]5c5ccoc5)O[C@H]1[C@]6(C4)O[C@]2(O)C(C)=CC3(C)C"
inactive

Next molecule: "O=C(NCCc1ccccc1)c1cc(/C=C/c2cc(O)ccc2O)ccc1O"
inactive

Next molecule: "O=S(O)CCCCCSSc1ccccc1"
inactive

Next molecule: CC#CC#C/C=C1/C=CC2(CCCCO2)O1 (centres undefined)
inactive

Next molecule: "CS(=O)(=O)OCCn1cnc2nc(NC(=O)c3ccccc3)[nH]c(=O)c21"
inactive

Next molecule: "Cc1nn(C)cc1P(=S)(c1ccccc1)c1ccccc1"
inactive

Next molecule: "CC(=O)Nc1ccc(/C=C/C(=O)c2sc(-n3nc(-c4ccccc4)cc3-c3ccccc3)nc2C)cc1"
inactive

Next molecule: COC(=O)CN(CC1O[C@@H]2OC(C)(C)O[C@@H]2C1N=[N+]=[N-])C(=O)OCc1ccccc1 (some centres undefined)
inactive

Next molecule: "O=C(O)CN(CC(=O)O)Cc1cc(C#Cc2ccc(C#Cc3ccccc3)cc2)cc(CN(CC(=O)O)CC(=O)O)n1"
inactive

Next molecule: "NNC1=N/C(=C\c2ccco2)C(=O)N1"
inactive

Next molecule: "COC(C[C@H]1CCCC[C@]1(O)/C(=C\CO[Si](C(C)C)(C(C)C)C(C)C)Sc1ccccc1)OC"
inactive

Next molecule: CN(C(=O)[C@H](NC(=O)OCc1ccccc1)c1ccccc1)C1CCCCC1N1CCCC1 (some centres undefined)
inactive

Next molecule: "Cn1c2ccccc2c2c3c(=O)[nH][nH]c(=O)c3c3c4ccccc4n(C)c3c21"
inactive

Next molecule: "C[C@]12CCC(=O)C=C1CC[C@@H]1[C@@H]2CC[C@]2(C)C(=O)[C@H](n3ccnc3)C[C@@H]12"
inactive

Next molecule: "Oc1cc(-c2cccs2)nc2cc3c(cc12)OCO3"
inactive

Next molecule: O=[N+]([O-])c1ccc(Cl)c(C2CC(c3cccc4ccccc34)=Nc3ccccc3[S+]2[O-])c1 (centres undefined)
inactive

Next molecule: "O=C(c1ccccc1)N1C2CCC1C(C(F)(F)F)=C2C(F)(F)F"
inactive

Next molecule: "CC1(C)O[C@@H](CP(c2ccccc2)c2ccccc2)[C@H](CP(c2ccccc2)c2ccccc2)O1"
inactive

Next molecule: Cn1c2c(c3ccccc31)CC1c3c(c4ccccc4n3C)CC21 (centres undefined)
inactive

Next molecule: "C=C1CN=C(Nc2ccc(F)cc2F)S1"
inactive

Next molecule: COc1ccc2c(c1)CC[C@@H]1C2CC[C@]2(C)C(=O)N(C)C(=O)CC12 (some centres undefined)
inactive

Next molecule: "CCCCNC(=S)N/N=C/c1cccc(C)n1"
inactive

Next molecule: CC12CCC(=O)C=C1CCC1C2C(O)CC2(C)C(c3csc(N)n3)CCC12.O=S(=O)(O)c1ccc(Br)cc1 (centres undefined)
inactive

Next molecule: "Cc1ccc2ccccc2c1CC1S(=O)(=O)OCCOS1(=O)=O"
inactive

Next molecule: CC(C)=CC1C(COC(=O)c2ccccc2Cl)C1(C)C (centres undefined)
inactive

Next molecule: "CCc1cc(Cc2cc(CC)c(NC(=O)C(=O)Cc3ccccn3)c(CC)c2Cl)c(Cl)c(CC)c1NC(=O)C(=O)Cc1ccccn1"
inactive

---

system: RXF 393; assay: NCI tumour cell line growth inhibition, 48 h
Active and inactive are the calls of the source. No stated cut-off is given here; in the data, active = GI50 up to about 1.1 µM and inactive = higher.
Endpoint label: GI50

Endpoint output: GI50 of "CC1=C(C(=O)Nc2ccc(C)cc2)C(c2cccc([N+](=O)[O-])c2)C(C(=O)Nc2ccc(C)cc2)=C(C)N1" . Value?
22.8 µM (inactive)

Next compound: O=C(O)c1cccc(S(=O)(=O)NN2C(=O)CSC2c2ccc(Cl)cc2Cl)c1 (centres undefined)
37.2 µM (inactive)

Next compound: "C=C(c1ccccc1)c1ccccc1-c1cc(-c2ccccc2)cc(-c2ccccc2)n1"
> 100 µM (inactive)

Next compound: "N#CC1(c2nc3ccccc3o2)C(=O)C(=O)N(c2ccc(Cl)c(Cl)c2)C(=O)C1=O"
> 100 µM (inactive)

Next compound: CC1(C)COC(c2cccc(C(O)c3ccc(Cl)cc3)c2)=N1 (centres undefined)
15 µM (inactive)

Next compound: Cn1c2c(c3ccccc31)CC1c3c(c4ccccc4n3C)CC21 (centres undefined)
> 100 µM (inactive)

Next compound: "C=CC1=C(C)c2cc3[nH]c(c4c5nc(cc6[nH]c(cc1n2)c(C)c6CC)C(C)=C5C(=O)[C@@H]4C(=O)OC)[C@@H](CCC(=O)O)[C@@H]3C"
1.29 µM (inactive)

Next compound: "Cc1cc2c(cc1CO)N1Cc3cc(C)c(CO)cc3N(C2)C1"
> 100 µM (inactive)

Next compound: "CC(C)(C)c1ccc2c(c1)OP1(Oc3cccc4cccnc34)(O2)Oc2ccc(C(C)(C)C)cc2O1"
3.37 µM (inactive)

Next compound: "O=c1c2ccccc2sc2cccc(NCCCN3CCN(CCCNc4cccc5sc6ccccc6c(=O)c45)CC3)c12"
> 100 µM (inactive)

Next compound: "O=C(Nc1ccccc1-c1nn(CO)c(=S)n(CO)c1=O)C(F)(F)F"
> 100 µM (inactive)

Next compound: OCC1OC(n2cnc3c(/C=C(/O)c4ccccc4)ncnc32)C(O)C1O (centres undefined)
4.12 µM (inactive)

Next compound: "CCCCCCc1cc(C(=O)Nc2cccc(C(F)(F)F)c2)nc(N)n1"
> 100 µM (inactive)

Next compound: "O=C(CSc1nnc(SCC(=O)NN=C2CCCCC2)s1)NN=C1CCCCC1"
> 100 µM (inactive)

Next compound: C/C=C/C/C=C/CCC(=O)C1OC1C(N)=O (centres undefined)
9.4 µM (inactive)

Next compound: "NCCCN(CCCN)CCCNCc1c2ccccc2c(CNCCCN(CCCN)CCCN)c2ccccc12"
21.4 µM (inactive)

Next compound: COc1c(OC(C)=O)cc2c(OC(C)=O)c1CC(C)CC(OC)C(O)C(C)/C=C(\C)C(OC(N)=O)C(OC)/C=C\C=C(/C)C(=O)N2 (centres undefined)
98.2 µM (inactive)

Next compound: "CN1CCN(C)C12C=c1ccccc1=CC21CC1"
55.5 µM (inactive)

Next compound: C=C1C(O)C2(O)OCC34C(CC5C(C)=CC(=O)C(O)C5(C)C23)OC(=O)C(OC(=O)C/C=C/CCCCCCCC)C14 (centres undefined)
0.0223 µM (active)

---

system: M14; assay: NCI tumour cell line growth inhibition, 48 h
The source made the active and inactive calls. Rule as the data show it: active = GI50 up to about 1.1 µM and inactive = higher.
Entry note: the call must match one of T (active), F (inactive)

What call does the record list for CC12CCC(=O)C=C1CCC1C2CCC2(C)C(C(=O)Cn3cnc4c(=S)nc[nH]c43)CCC12 (stereo not given) ?
F

Next compound: "C[C@@H](NC(=O)[C@@H]1C[C@]1(C)COC(=O)c1cc([N+](=O)[O-])cc([N+](=O)[O-])c1)c1cccc2ccccc12"
F

Next compound: OCC1CC2C=CCC(C2)C1 (stereo not given)
F

Next compound: "O=c1oc2ccc([N+](=O)[O-])cc2cc1Br"
F

Next compound: "COc1cccc(/N=C/c2cc(OC)c(OC)c(OC)c2)c1"
F

Next compound: "COc1cc(C)c(C)c(OC(=O)c2c(C)c(C)c(OC)c(C)c2OC)c1C"
F

Next compound: "NCCCN(CCCN)CCCNCc1c2ccccc2c(CNCCCN(CCCN)CCCN)c2ccccc12"
F

Next compound: CC12CCC(=O)C=C1CCC1C2C(O)CC2(C)C(c3csc(N)n3)CCC12.O=S(=O)(O)c1ccc(Br)cc1 (stereo not given)
F

Next compound: Fc1ccc(C2SCc3nc4ccccc4n32)cc1 (stereo not given)
F

Next compound: CC1CC2(CC[C@@H]1O)OCCO2 (stereo not given in full)
F

Next compound: "COc1cc(/C=C\c2ccc(SC)cc2)cc(OC)c1OC"
T

Next compound: "O=S(O)CCCCCSSc1ccccc1"
F

Next compound: O=C1C2C3C=CC(C2C(=O)N1CN1CCOCC1)C1C2C(=O)N(CN4CCOCC4)C(=O)C2C31 (stereo not given)
F

Next compound: "C/C(=N\O)c1sc(-n2nc(-c3ccccc3)cc2-c2ccccc2)nc1C"
F

Next compound: CCCCCCCCCCCCCC(=O)OC1CC(=O)OC1CO (stereo not given)
F

Data origin, for the record: ChEMBL document CHEMBL1201862
